- system-name: T1, GST-DZIP1-N (aa 1–293) (Drosophila, UniProt Q9VC70 1-293)
- T1 construct: Cloned into pGEX-4T-1; also called N-terminus of DZIP1; source: E. coli BL21 (DE3), purified (Glutathione Sepharose)
- T1 sequence (looked up): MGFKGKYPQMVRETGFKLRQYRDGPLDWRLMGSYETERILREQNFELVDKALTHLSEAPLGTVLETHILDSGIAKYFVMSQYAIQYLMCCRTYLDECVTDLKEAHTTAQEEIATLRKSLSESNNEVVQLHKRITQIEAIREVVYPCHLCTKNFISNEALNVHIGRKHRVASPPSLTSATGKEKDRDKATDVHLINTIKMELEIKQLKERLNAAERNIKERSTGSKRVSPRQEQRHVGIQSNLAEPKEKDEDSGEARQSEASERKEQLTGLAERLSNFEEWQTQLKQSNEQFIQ
- assay-remarks: pull-down; GST pull-down: purified His-tagged proteins incubated with GST, GST-DZIP1-N or GST-DZIP1-C in 25 mM Tris-HCl pH 7.4, 150 mM NaCl, 0.5% Triton X-100, 1 mM dithiothreitol, 10% glycerol, overnight at 4°C; blot with anti-His antibodies
- assay-conditions: both partners purified

binder	binding result
CEP290 N (aa 401–650) (domain or fragment, Drosophila, UniProt Q9W0M1 401-650, looked up, Drosophila centrosomal protein 290 (CEP290); This construct is not described in the methods; probably His-tagged and made in E. coli like His-CEP290-N) GLIPALRRCSGLEQKVAARDKQLRAYIQELNSLHEVVQENELLRRKLHIPDDVVIMAKNVHSKQRNKDKQIERLTLKLRTSEELRLQLKLEKSELRRKLLELQQDSPQTLNESLQAPSEVGEVPHSVHLENSPRRGQGDGAASSEMQNRYDEVLAENETLRSGMYEILEKLREYDATSEHITIDSDLLRRLIEALPGGTTTPQRLQGQLLELKAREEALRQLLEQQNYSDSETGELSSVHSLCEVPEIAE	binds
CEP290 N (aa 651–887) (domain or fragment, Drosophila, UniProt Q9W0M1 651-887, looked up, Drosophila centrosomal protein 290 (CEP290); This construct is not described in the methods; probably His-tagged and made in E. coli like His-CEP290-N) EHPVEEDAVLNTATRPSSPTEATMGLRRPTVPDPEEKPTNEALAELSILRKHYDELRLHMSADGSDLMNRNQELHDQMIALELQLEQQRNSYSYMRRDYDQLLTETRKQELRFIDDKASLARQLEHSKSELCEAREELEQVNRRNLYTAEEQQKLEHRNAILSMQLGQAMEQLLGELKPTEICAEYGIIRENYQLDYITAQDFEEQQQELLTWRSKQAELQRETKQLEGLLHVANEQ	binds
His-Rab8 (natural protein, Drosophila, UniProt O18338 1-207, looked up, Drosophila Rab8; Cloned into pET28a; source: E. coli BL21 (DE3), purified (His resin)) MAKTYDYLFKLLLIGDSGVGKTCILFRFSEDAFNTTFISTIGIDFKIRTIELDNKKIKLQIWDTAGQERFRTITTAYYRGAMGIMLVYDITQEKSFENIKNWIRNIEENASADVEKMLLGNKCELTDKRQVSKERGEQLAIEYGIKFMETSAKASINVEEAFLTLASDIKAKTEKRMEANNPPKGGHQLKPMDSRTKDSWLSRCSLL	binds
His-Rab8^T22N (natural protein, Drosophila, UniProt O18338 1-207, looked up, Drosophila Rab8 with T22N; Cloned into pET28a; also called Rab8^GDP-mimicking mutant; source: E. coli BL21 (DE3), purified (His resin)) MAKTYDYLFKLLLIGDSGVGKNCILFRFSEDAFNTTFISTIGIDFKIRTIELDNKKIKLQIWDTAGQERFRTITTAYYRGAMGIMLVYDITQEKSFENIKNWIRNIEENASADVEKMLLGNKCELTDKRQVSKERGEQLAIEYGIKFMETSAKASINVEEAFLTLASDIKAKTEKRMEANNPPKGGHQLKPMDSRTKDSWLSRCSLL	binds
